Tested on: T-47D cells
Experiment: Effect on oestrogen-induced proliferation of T-47D cells
Assay type: cell-based, human
Details: Homo sapiens, T47D, 168 h; 10^-6 M; 100% = E2 10^-9 M, 7 days; read-out: growth of T-47D cells
MEASURED ENDPOINT: activity at 1 µM (%)
// units = %; emit number, no label

// known answers, use as guide
[[record]]
compound = "C/C(=C/c1ccc2c(c1)C(C)(C)CCC2(C)C)c1ccc(C(=O)O)cc1 [CB28628, reference compound]"
measured_endpoint = "activity at 1 µM"
uom = "%"
numeric_value = 33

[[record]]
compound = "C/C(=C/c1ccc2c(c1)C(C)(C)CCC2(C)C)c1ccc(C(=O)O)nc1"
measured_endpoint = "activity at 1 µM"
uom = "%"
numeric_value = 84


response.value for C/C(=C/c1ccc2c(c1)C(C)(C)CCC2(C)C)c1ccc(-c2nnn[nH]2)cc1 (field: activity at 1 µM) = 94

* * *

Tested on: A549 human pulmonary cancer cells
Test: MTT test, proliferation of A549
Assay type: cell-based
Settings: Homo sapiens; A549, 10^-8 M, 72 h, control = 100%; read-out: level of proliferation
Measured activity at 0.01 µM values are reported for all entries that follow.
The response must be a number in % with no trailing unit.

Please review the entries below; each comes with its answer.
[[record]]
compound = "C/C(=C/c1cc2c(cc1C)C(C)(C)CCC2(C)C)c1ccc(C(=O)O)cc1"
numeric_value = 101

[[record]]
compound = "C/C(=C/c1cc2c(cc1C)C(C)(C)CCC2(C)C)c1ccc(-c2nnn[nH]2)cc1"
numeric_value = 106

[[record]]
compound = "CCCCCCCOc1cc2c(cc1/C(C)=C/c1ccc(C(=O)O)cc1)C(C)(C)CCS2(=O)=O"
numeric_value = 108

[[record]]
compound = "Cc1cc2c(cc1/C=C(\\c1ccc(-c3nnn[nH]3)cc1)C(F)(F)F)C(C)(C)CCC2(C)C"
numeric_value = 124


get_value(item= C/C(=C\c1cc2c(cc1C)C(C)(C)CCC2(C)C)c1ccc(-c2nnn[nH]2)cc1 , readout=activity at 0.01 µM) returns 176

The compound identified as C/C(=C/c1ccc2c(c1)C(C)(C)CCC2(C)C)c1ccc(C(=O)O)cc1 [CB28628, reference compound] registered its activity at 0.01 µM at 109

The recorded activity at 0.01 µM for C/C(=C\c1ccc2c(c1)C(C)(C)CCS2(=O)=O)c1ccc(-c2nnn[nH]2)cc1 is 92.7

* * *

Test system: ERE-βGlob-Luc, MELN lineage (MCF-7)
Assay: Anti-oestrogenic effect, MELN lineage activated by estradiol
Type: cell-based, human
Conditions: estradiol-activated MELN cells
MEASURED ENDPOINT: anti-oestrogenic effect (in words)

[[record]]
compound = "CC1(C)CCC(C)(C)c2cc(/C=C(\\c3ccc(-c4nnn[nH]4)cc3)C(F)(F)F)ccc21 [CB77402]"
assay_target = "ERE-βGlob-Luc, MELN lineage (MCF-7)"
result = "inactive"

[[record]]
compound = "Cc1cc2c(cc1C(=O)c1ccc(C(=O)O)cc1)C(C)(C)CCC2(C)C [LGD-CB14499, reference compound]"
assay_target = "ERE-βGlob-Luc, MELN lineage (MCF-7)"
result = "inactive"

[[record]]
compound = "C/C(=C/c1ccc2c(c1)C(C)(C)CCC2(C)C)c1ccc(-c2nnn[nH]2)cc1 [CB92834]"
assay_target = "ERE-βGlob-Luc, MELN lineage (MCF-7)"
result = "inactive"

